The reported measurements were obtained from ChEMBL document CHEMBL4513216.

Entries and their measured INHIBITION follow.
Test system: Plasmodium berghei
RUN_DESCRIPTION: Screen against P. berghei liver stage (PbLuc), transformed with Luciferase, at 10uM
Format: functional, HepG2
COND: tested at 10 uM
Among all 69,000 compounds or so, about 8,600 (12%) showed an effect of 50% or more. The entries come from a sample that favours strong results as a whole.
VALUE_KIND: INHIBITION (%)

>>> meas_value("CCc1ccc(C(=O)N2CCC(c3nncn3CC)CC2)s1")
9.14
>>> meas_value("CN(C)CC1(O)CCCN(Cc2ccccc2OCC(=O)N(C)C)C1 (stereo unspecified)")
47.6
>>> meas_value("OCC1(O)CCCN(Cc2nnc(-c3ccccc3)o2)CC1 (stereo unspecified)")
21.2
>>> meas_value("O=C(NCc1ccccc1Cn1cncn1)N1CCCC1")
-33.3
>>> meas_value("OCCOc1ccccc1CN1CCCC(O)(CO)C1 (stereo unspecified)")
66.5
>>> meas_value("Cc1cc(C)c(C(=O)N2CCCC(O)(CN3CCCC3)C2)cc1C (stereo unspecified)")
34.9
>>> meas_value("O=C(Nc1cccnc1)[C@H]1C[C@@H]2CCN(c3nncs3)C[C@H]2O1")
-13.2
>>> meas_value("O=C1NCC2(CCCN(Cc3ccccc3OCCO)C2)O1 (stereo unspecified)")
44.3
>>> meas_value("O=C(N[C@@H]1CN(Cc2ccoc2)[C@@H]2CCCO[C@@H]21)C1CC1")
11.2
>>> meas_value("CC(C)(C)CC(=O)NS(=O)(=O)c1ccc(C#N)cc1C(F)(F)F")
19.2
>>> meas_value("CC(C)C(=O)N1CC[C@H]2N(C)CC[C@@]2(C(=O)Nc2ccccc2)CC1")
44.8

###

System: Plasmodium berghei
RUN_DESCRIPTION: Screen against P. berghei liver stage (PbLuc), transformed with Luciferase, at 10uM
Assay type: functional, HepG2
COND: tested at 10 uM
The whole screen tested about 69,000 compounds, of which about 8,600 (12%) showed an effect of 50% or more. What follows is part of a selection rich in strong results, with near analogues and random picks from the rest.
Entries and their measured INHIBITION follow.
VALUE_KIND: INHIBITION (%)

>>> meas_value("CNC(=O)NC(=O)CCSCc1cc(Cl)cc2cccnc12")
-51.1
>>> meas_value("CNC(=O)c1cnc(C)nc1CCNC(=O)CCc1ccccc1")
-0.232
>>> meas_value("Cc1ccc(N2C[C@@H]3CCCO[C@@H]3[C@H](N3CCCC3)C2)nn1")
20.1
>>> meas_value("CNC(=O)c1ccc(N(C)C2CCC2)nn1")
-107
>>> meas_value("COCc1noc(Cc2c(C)nn(C)c2C)n1")
28.5
>>> meas_value("CC(C)[C@@H]1CN(C(=O)NCCc2ccccc2)C[C@H]1NS(=O)(=O)N(C)C")
41.3
>>> meas_value("COc1cc(CCC(=O)NC(C)(C)C)ccc1OCC(F)(F)F")
-17.4
>>> meas_value("CCCc1n[nH]c(C2CN(C(=O)CCc3cscn3)CCO2)n1 (stereo not given)")
25.3
>>> meas_value("O=C(N[C@@H]1CCC[C@@H](N2CCOCC2)[C@@H]1O)c1cc2ccccc2[nH]1")
-3.31
>>> meas_value("COCCC(=O)N1Cc2ccccc2OC2(CCOCC2)C1")
26.05
>>> meas_value("Cn1nc(C2CCNC2)c2c(C(=O)NCC(F)(F)F)cc(C3CC3)nc21 (stereo not given)")
47.4
>>> meas_value("O=C(c1ccsc1)N1C[C@H]2CN(Cc3cccnc3)C(=O)[C@H]2C1")
4.61
>>> meas_value("O=C(c1ccco1)N1C[C@H]2CCCN(CC3CCOCC3)[C@H]2C1")
49.5
>>> meas_value("c1nc2n(c1CN1CCCC1)CCN(C1CCOCC1)CC2")
80
>>> meas_value("CC(=O)Nc1ccc(SCC(O)COCc2ccccc2)cc1 (stereo not given)")
16.6
>>> meas_value("c1cnc(N2CCCC(NCc3cccc4c3OCCO4)C2)nc1 (stereo not given)")
22.9
>>> meas_value("CCC[C@@H]1CN(Cc2cc(OC)c3c(c2)OCO3)C[C@H]1C(=O)O")
39.4
>>> meas_value("CC(C)[C@@H]1CN(Cc2ccsc2)C[C@H]1NS(=O)(=O)N(C)C")
50.1
>>> meas_value("CC1CN(CCC(=O)NCCc2cccnc2)Cc2ccccc2O1 (stereo not given)")
26.1
>>> meas_value("COC(=O)c1ccc(N(C)C2CCC2)nn1")
50.1
>>> meas_value("COc1ccc(Cn2cc(C(=O)N(C)Cc3cnccn3)nn2)cc1")
21.5
>>> meas_value("Cc1nc(CN2C[C@@H](NS(=O)(=O)N(C)C)[C@H](C(C)C)C2)cs1")
38.3
>>> meas_value("CC(=O)c1cc(CN2C[C@@H](N(C)C)[C@H](C(C)C)C2)cs1")
13.7
>>> meas_value("Cn1ccc(C(=O)NC2CCC23CCN(Cc2nccs2)CC3)c1 (stereo not given)")
38.2
>>> meas_value("Cc1cc(C)c(C(=O)N2CCC3(CCCNC3)C2)cc1C (stereo not given)")
-35.8
>>> meas_value("C[C@H]1CN(C(=O)c2cccnc2)C[C@@]12CCN(CCN1CCCC1)C2=O")
23.6
>>> meas_value("CC1CN(CC(=O)NCCc2ccncc2)Cc2ccccc2O1 (stereo not given)")
60.9
>>> meas_value("CC(NCC1CCS(=O)(=O)CC1)c1cccc(OC(F)F)c1 (stereo not given)")
2.97
>>> meas_value("CC(=O)c1cc(CN2C[C@@H](NS(=O)(=O)N(C)C)[C@H](C(C)C)C2)cs1")
52.2
>>> meas_value("O=C(C1CCOC1)N1CCc2ncc(CNc3ccccn3)n2CC1 (stereo not given)")
41.5
>>> meas_value("CNC(=O)CN1CCCC12CCN(C(=O)c1cccc(F)c1)CC2")
14.9
>>> meas_value("C=Cc1cccc(CN2C[C@@H]3CC[C@H]2CN(Cc2c(C)noc2C)C3)c1")
-19.2
>>> meas_value("O=C(CSc1nc2c(cnn2CCO)c(=O)[nH]1)NC1CCCCC1")
39.2
>>> meas_value("Cc1ccc2c(c1)CN(CC(=O)NCCc1ccc(F)cc1)CC(C)O2 (stereo not given)")
-46.4
>>> meas_value("Cn1nc(C2CCNC2)c2c(C(=O)NC3CC3)cc(C3CC3)nc21 (stereo not given)")
45.8
>>> meas_value("c1nc2n(c1CN1CCOCC1)CCN(C1CCOC1)CC2 (stereo not given)")
-52.3
>>> meas_value("COCCC(=O)N1C[C@H]2CN(Cc3cccc(C)c3)C(=O)[C@H]2C1")
14.9
>>> meas_value("CN(Cc1cc(C2CC2)[nH]n1)C(=O)c1cnn2ccn(C)c12")
14.9
>>> meas_value("c1nc2n(c1CN1CCCCC1)CCN(C1CCOC1)CC2 (stereo not given)")
-33.9
>>> meas_value("[O-][S+](Cc1c(F)cccc1Cl)Cc1nnnn1C1CC1 (stereo not given)")
19.8
>>> meas_value("O=C(NCCc1nc(C2CC2)no1)[C@H]1CNC[C@H](C(=O)N2CCCC2)C1")
-31.3
>>> meas_value("Cn1nc(C2CCCN2)c2c(C(=O)NC3CC3)cc(C3CC3)nc21 (stereo not given)")
40
>>> meas_value("c1cnc(-c2nn3c(CN4CCCCCC4)nnc3s2)cn1")
21.7
>>> meas_value("CC[C@@H]1N(Cc2cc(OC)cc(OC)c2)CCC[C@]12CCC(=O)N2C")
-54.1
>>> meas_value("CN(C)S(=O)(=O)N1C[C@H]2CC[C@@H](C1)N(Cc1ccc3nsnc3c1)C2")
45.1

###

Test system: Plasmodium berghei
RUN_DESCRIPTION: Screen against P. berghei liver stage (PbLuc), transformed with Luciferase, at 10uM
Format: functional, HepG2
COND: tested at 10 uM
The whole screen tested about 69,000 compounds, of which about 8,600 (12%) showed an effect of 50% or more. This excerpt belongs to a sample that is enriched for strong results.
Measured INHIBITION determines class: lower segment: < 10%; middle segment: ≥ 10% and < 40%; upper segment: ≥ 40%

>>> qualitative_label("Cc1cccc(C(=O)N2CCN(CCOC(C)C)CC2)n1")
"lower segment"
>>> qualitative_label("CC(C)c1noc(C(C)N2CCN(Cc3cccc(C#N)c3)CC2)n1 (centres undefined)")
"lower segment"
>>> qualitative_label("CCc1nccn1-c1cncc(C2CCCN2Cc2ccccc2)n1 (centres undefined)")
"upper segment"
>>> qualitative_label("CC(C)c1noc(C(C)N2CCN(c3ccc(C#N)cn3)CC2)n1 (centres undefined)")
"upper segment"
>>> qualitative_label("Cn1cc(NC(=O)Nc2ccc3c(c2)OCO3)cn1")
"middle segment"
>>> qualitative_label("Cc1ccc(C(=O)N2CCC3(CC2)CN(CCN(C)C)C(=O)O3)c(F)c1")
"upper segment"
>>> qualitative_label("CCCS(=O)(=O)N1Cc2nccn2CC(CN(C)C)C1 (centres undefined)")
"lower segment"
>>> qualitative_label("CCc1oc2ccc(NS(C)(=O)=O)cc2c1C(=O)OC")
"middle segment"
>>> qualitative_label("Cc1cnc(N2C[C@@H]3C[C@H](C(=O)N(C)C)[C@H](C2)O3)nc1")
"middle segment"
>>> qualitative_label("Cc1cccc(C(=O)N2CCN(CCC(C)C)CC2)n1")
"upper segment"
>>> qualitative_label("CC(c1nc(C2CC2)no1)N1CCN(Cc2ccc(C#N)cc2)CC1 (centres undefined)")
"upper segment"
>>> qualitative_label("CC(Cc1ccccc1F)C(=O)Nc1ccc(OCCC(N)=O)cc1 (centres undefined)")
"lower segment"
>>> qualitative_label("NC(=O)C(CNC(=O)CCc1ccccc1)Cc1ccc(F)cc1 (centres undefined)")
"middle segment"
>>> qualitative_label("O=c1[nH]nc2c(N3CCCCCC3)nccn12")
"upper segment"
>>> qualitative_label("COc1cc(N2CC[C@H]3O[C@@H](C(=O)NC4CCCC4)CC[C@H]32)ncn1")
"lower segment"
>>> qualitative_label("O=C(NCC1CC1)C1CSCN1S(=O)(=O)c1ccccc1F (centres undefined)")
"middle segment"
>>> qualitative_label("CC(c1nc(C2CC2)no1)N1CCN(Cc2cccc(C#N)c2)CC1 (centres undefined)")
"upper segment"
>>> qualitative_label("Cc1nc2cc(C(=O)N(CCC#N)CC3CCCO3)ccc2[nH]1 (centres undefined)")
"lower segment"
>>> qualitative_label("Cc1cccc(NC2CCN(C(=O)Nc3ccncc3)CC2)n1")
"middle segment"
>>> qualitative_label("Cc1noc(C(C)N2CCN(c3ccc(C#N)cn3)CC2)n1 (centres undefined)")
"lower segment"
>>> qualitative_label("O=c1[nH]nc2c(N3CCC(NC4CCOCC4)CC3)nccn12")
"middle segment"
>>> qualitative_label("CC(c1nc(C2CC2)no1)N1CCN(Cc2ccccc2)CC1 (centres undefined)")
"middle segment"
